Experiment: T. gondii growth inhibition with IFN-gamma, primary screen, cell-based (AID 1259416);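 also: host cells are HeLa cells infected with Toxoplasma gondii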
Settings: Toxoplasma gondii growth in IFN-gamma-treated host cells; hits give low values; concentration not given here
The whole screen tested about 69,000 compounds, of which about 2,600 (3.8%) were called active. This excerpt belongs to a sample that is enriched for actives.
propertyLabel: activity change, negative = inhibition (%)
Just the number in %, nothing appended.

Cc1ccsc1CN(CCCN1CCOCC1)CC1=Cc2ccccc2OC1; 97.9
CC1CCN(c2cncnc2-n2cc(NC(=O)CC3CCCCC3)cn2)CC1; -88.5
O=S(=O)(CCSCc1ccc(Cl)cc1)CCSCc1ccc(Cl)cc1; -10
COc1cccc(NC(=O)N2CCC3(CC2)CC(=O)c2ccccc2O3)c1; -5.86
COCCn1cc(-c2nc(C(=O)NCCc3cccnc3)c3ccccn23)nc1C; -8.4
CCn1c(-c2cc(NC(=O)c3ccncc3)n[nH]2)cc2ccccc21; -91

Given the entry C[C@H]1CN([C@@H](C)CO)S(=O)(=O)c2ccc(C#Cc3cccc(F)c3)cc2O[C@@H]1CN(C)S(=O)(=O)c1cn(C)cn1 , report its measured activity change, negative = inhibition. -91.2

----------
Assay: T. gondii growth inhibition with IFN-gamma, primary screen, cell-based (AID 1259416);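 also: host cells are HeLa cells infected with Toxoplasma gondii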
Details: Toxoplasma gondii growth in IFN-gamma-treated host cells; concentration not given here
Screen size: about 69,000 compounds; about 2,600 (3.8%) were called active. Cut-off read from the data, not from the text of the source: active = activity change below about -70% (passing the limit was not always enough); inconclusive = no clear call, values can overlap the other calls. For the sample, actives were picked, then their nearest neighbours and some compounds at random.
Select the matching outcome among active, inactive

CN1CC[C@H](c2c(O)cc(O)c3c(=O)cc(-c4ccccc4Cl)oc23)[C@H](O)C1; active

Outcome logged for Cc1ccc2c(c1C)-n1cccc1C1(CCN(S(=O)(=O)c3ccc(C4CCCCC4)cc3)CC1)N2 in this assay: inactive

Item: O[C@@H]1CNCC[C@H]1CNCc1cccc(Oc2cccc(C(F)(F)F)c2)c1 active

Item: Cc1cccn2cc(C(=O)NC[C@@H]3CCNC[C@H]3O)nc12 inactive

Item: CN(C)S(=O)(=O)c1ccc2c(c1)cc(C(=O)NCCC1=CCCCC1)n2Cc1ccncc1 inactive

Item: N#Cc1ccc(C(=O)N2CCC3C2CCC(=O)N3c2cccnc2)cc1 (stereo unspecified) inactive

Item: Cc1cc(CNC(=O)c2cccc(C3CCNC3)c2)ccc1F (stereo unspecified) inactive

Item: CCS(=O)(=O)N1CC2(CN(C(=O)c3ccc(F)cc3)[C@@H](CO)c3c2c2ccc(OC)cc2n3C)C1 inactive

----------
# maps each entry to its activity change, negative = inhibition
Assay: T. gondii growth inhibition with IFN-gamma, primary screen, cell-based (AID 1259416);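 also: host cells are HeLa cells infected with Toxoplasma gondii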
Conditions: Toxoplasma gondii growth in IFN-gamma-treated host cells; hits give low values; concentration not given here
Hit rate of the full screen: of about 69,000 compounds, about 2,600 (3.8%) were called active. This is one part of a sample in which actives are shown more often than they occur.
Just the number in %, nothing appended.

Solved entries (count: 6):
COc1ccc(Cl)cc1S(=O)(=O)N1CCC(c2nc(C(=O)N(C)C)c(C)o2)CC1; -56
CN(C)C(=O)[C@@]12CCCN(Cc3cccs3)C[C@@H]1CN(Cc1cnn(C)c1)C2; -0.124
COC(=O)c1cc2n(n1)CCCN(C(=O)COc1ncnc3ccccc13)C2; 2.6
Cc1ccc2oc(=O)n(CCC(=O)N3[C@@H]4CC[C@H]3CNC(=O)C4)c2c1; -11.3
C=CC(=O)Nc1ccc2c(c1)CCC(=O)N2CC; -3.01
CN(C)C(=O)NC[C@H]1CCC[C@]2(CCN(Cc3nccs3)C2)O1; -40.2

Given the entry CCCC1CCC(c2ccc(-c3ccc(CC)cn3)cc2F)CC1 (stereo not given) , report its measured activity change, negative = inhibition. -76

Item: CCN1CCN(c2ncnc3sc(C(=O)NCCc4c[nH]c5ccc(Cl)cc45)c(C)c23)CC1 -83.1

Item: O=C(O)CC1CCC(c2ccc(-c3ccc(Nc4ccc(C(F)(F)F)nc4)cn3)cc2)CC1 (stereo not given) -61.2

Item: O=C(/C=C/c1ccc(CN(CCO)CCc2c[nH]c3ccccc23)cc1)NO -85.7

----------
Test: T. gondii growth inhibition with IFN-gamma, primary screen, cell-based (AID 1259416);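 also: host cells are HeLa cells infected with Toxoplasma gondii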
Conditions: Toxoplasma gondii growth in IFN-gamma-treated host cells; hits give low values; concentration not given here
The whole screen tested about 69,000 compounds, of which about 2,600 (3.8%) were called active. For the sample, actives were picked, then their nearest neighbours and some compounds at random.
propertyLabel: activity change, negative = inhibition (%)
Just the number in %, nothing appended.

Solved entries (count: 3):
O=c1[nH]c2ccccc2n1C1CCN(CCOc2ccccc2)CC1; -49.4
CC(C)N1CCN(C(=O)c2csc(-c3ccc(N4CCCC4)nc3)n2)CC1; -27.3
FC(F)(F)c1cccc2c(N3CCN(C4CCOCC4)CC3)ccnc12; -46.1

Given the entry CCc1cn[nH]c1C1CCN(C(=O)C2COc3c(cccc3OC)C2)CC1 (stereo unspecified) , report its measured activity change, negative = inhibition. -0.504

Item: Cc1nc(SCc2nc(C(c3ccccc3)c3ccccc3)no2)[nH]c(=O)c1C -95.3

Item: Cc1nn(-c2ccccc2)c(C)c1-c1ccnc(NCc2cnc3ccccn23)n1 -82.8

----------
Assay: T. gondii growth inhibition with IFN-gamma, primary screen, cell-based (AID 1259416);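 also: host cells are HeLa cells infected with Toxoplasma gondii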
Conditions: Toxoplasma gondii growth in IFN-gamma-treated host cells; hits give low values; concentration not given here
Out of some 69,000 compounds screened, about 2,600 (3.8%) were called active. The sample holds actives, similar compounds and a random draw of the others, so the mix is not that of the screen.
propertyLabel: activity change, negative = inhibition (%)
Just the number in %, nothing appended.

Solved entries (count: 4):
O=C(CSc1nc2ccc(N3C(=O)c4ccccc4C3=O)cc2s1)N1CCOCC1; 1.26
COCCC(=O)c1cc2c(s1)CCN2c1ccc(C)nn1; 59.6
c1cnc2c(-c3cc(N4CCOCC4)ncn3)cccc2c1; 12.9
Cc1nn(Cc2nc(-c3ccc(NC(=O)C4CCCO4)cc3)oc2C)c(C)c1C (configuration not stated); 33.9

Given the entry COc1cc(/C=C/CN2CCC3(CC2)c2ccccc2[C@@H](NC(=O)C(C)C)[C@@H]3OC)ccc1O , report its measured activity change, negative = inhibition. 12.6

Item: O=C(Nc1ccc(OCc2ccccc2)cc1)OCC1CN(Cc2ccccc2)CCO1 (configuration not stated) -88.7

Item: COc1ccc(C(=O)N2CC(C(=O)N3CCOCC3)C3(CCOCC3)C2)cc1 (configuration not stated) 2.42

Item: Cc1cccc(C)c1NC(=O)c1nnn(Cc2nc(-c3ccccc3)oc2C)c1C -62.3

Item: Cc1oc(-c2ccc(NC(=O)c3ccc(C(C)(C)C)cc3)cc2)nc1Cn1cccn1 -96.9

----------
Test: T. gondii growth inhibition with IFN-gamma, primary screen, cell-based (AID 1259416);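 also: host cells are HeLa cells infected with Toxoplasma gondii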
Conditions: Toxoplasma gondii growth in IFN-gamma-treated host cells; hits give low values; concentration not given here
Out of some 69,000 compounds screened, about 2,600 (3.8%) were called active. The full list was thinned out, with actives kept by preference.
# maps each entry to its activity change, negative = inhibition
Just the number in %, nothing appended.

Given the entry CC(C)Cc1cc(C(=O)N2CCCC3(CN(C)C(=O)O3)C2)on1 (stereo unspecified) , report its measured activity change, negative = inhibition. 3.84

Item: CCCNc1ncc(-c2nccn2CC2CCOCC2)cn1 0.573

Item: Cc1cc(Nc2cc(CN3CCOCC3)c3nc(C)c(Cc4ccc(Cl)cc4F)n3n2)n[nH]1 -78.1

Item: O=C(CC1Nc2c3ccccc3nc(=S)n2C1=O)N1CCN(c2ccc(Cl)cc2)CC1 (stereo unspecified) -16.2

Item: CCSc1nc(CC(=O)NCc2nnc3n2CCC3)cs1 -48.7

Item: CCC(C)N(Cc1ccncc1)C(=O)Cc1nc(C)sc1C (stereo unspecified) 46

Item: Cc1cc(S(=O)(=O)NCc2ccc3c(c2)OCO3)ccc1-n1cnnn1 -7.98

Item: Cc1noc(C[C@H]2C[C@@H]3CN(C(=O)c4ccco4)C[C@H]3O2)n1 -25

Item: CNc1ccc(Cl)cc1C(=O)NCCN(C)S(C)(=O)=O -31

Item: CC(C)C(=O)NS(=O)(=O)c1ccc(NC(=O)c2ccccc2)cc1 5.8

Item: Cc1ccc(C2(O)CCN(C(=O)c3noc(C)c3CO)CC2)nc1 -2.58

----------
Experiment: T. gondii growth inhibition with IFN-gamma, primary screen, cell-based (AID 1259416);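 also: host cells are HeLa cells infected with Toxoplasma gondii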
Settings: Toxoplasma gondii growth in IFN-gamma-treated host cells; concentration not given here
The campaign covered roughly 69,000 compounds. About 2,600 (3.8%) were called active. Rule as the data show it: active = activity change below about -70% (passing the limit was not always enough); inconclusive = no clear call, values can overlap the other calls. This is one part of a sample in which actives are shown more often than they occur.
Select the matching outcome among 1 for active, -1 for inactive

COc1ccccc1OCc1cc(C(=O)NCCF)n[nH]1; -1
COCc1cnc2n1CCN(C(=O)c1oc3ccccc3c1C)C2C (stereo not drawn); -1
Cc1nc(-c2cccnc2)sc1C(=O)N(CCN(C)C)Cc1ccc2c(c1)OCO2; -1
COc1ccc2c3c(n(C)c2c1)[C@H](CO)N(Cc1ccccc1Cl)CC31CN(C(=O)CN(C)C)C1; -1
Cc1cc(C)c2c(n1)sc1c(=O)n(C)cnc12; -1
CC(C)Cn1ncc2c1NC(=O)CC2c1csc(-c2ccccc2)n1 (stereo not drawn); 1
CCCC(=O)NCCc1sc(-c2cccc(F)c2)nc1C; -1
O=C1CC(c2cccnc2)c2cnn(CC3CC3)c2N1 (stereo not drawn); -1
COc1ccccc1-n1cc(CNC(=O)c2ccc(=O)n(C)c2)cn1; -1
C[C@@H](O)C#Cc1ccc([C@H]2[C@@H](CO)N3CCCCN(CC4CC4)C[C@@H]23)cc1; -1

Outcome logged for O=S(=O)(c1ccccc1)N1[C@H](CO)[C@@H]2c3ccccc3NC[C@@H]21 in this assay: -1

Item: Cn1nc(C(=O)NCC2CCC(c3nnc(-c4ccncc4)o3)CC2)ccc1=O (stereo not drawn) -1
